Experiment: Selectivity index, ratio of maximum non-toxic concentration for human Caco-2 cells to MIC for antifungal activity against Candida krusei ATCC 34135
Format: toxicity
Settings: read-out: Selectivity Index
Result type: selectivity ratio

input: Which measured selectivity ratio value corresponds to Cc1nc(-c2ccc(C(C)(C)C)cc2)sc1-c1nnc(N[C@@H]2CCCC[C@@H]2N)o1 (relative stereo) ?
output: ≤ 64

----------
Experiment: Selectivity index, ratio of maximum non-toxic concentration for human Caco-2 cells to MIC for antifungal activity against fluconazole-resistant Candida auris 383
Format: toxicity
Details: read-out: Selectivity Index
Result type: selectivity ratio

input: Which measured selectivity ratio value corresponds to Cc1nc(-c2ccc(C(C)(C)C)cc2)sc1-c1nnc(N[C@@H]2CCCC[C@@H]2N)o1 (relative stereo) ?
output: ≤ 64
